Quick list: IC50 per entry.
- TARGET OR SYSTEM: DRB1*1501 (Homo sapiens, UniProt P01903+P01911)
- MEASUREMENT PROTOCOL: biochemical
- Assay type: binding
No end group written: not given here.
Please reply with the bare figure in nM and do not write the unit itself.

INSERT INTO assay_data (sequence_text, property_name, unit_abbrev, measured) VALUES
  ('NTTPIIHLKGDKNSL [Peptide 1601.37]', 'IC50', 'nM', 11400),
  ('QHSFNDDIFDLSEMI [Peptide 90.0152]', 'IC50', 'nM', 688),
  ('ETCMVIEPPKLRSQT [Peptide 90.0083]', 'IC50', 'nM', 670),
  ('EVHMENESIYCPDSV [Peptide 90.0238]', 'IC50', 'nM', 516);

Report IC50 for FKYFKEDAAKYSKTQ [Peptide 90.0206] please. 865

Report IC50 for FIHFIQGAVISFVNS [Peptide 89.0036] please. 677

Report IC50 for ETCMLIQPPKLRSSV [Peptide 89.0029] please. 1700

* * *

- TARGET OR SYSTEM: DRB1*1201 (Homo sapiens, UniProt P01903+P01911, A100R/A169T/D57E/D86V/F55L/H45Y/K41T/L162R/M171V/P40S/Q125H/Q178H/Q39Y/Q99D/R42G/S66L/T262R/V114A/V67L/W38E/Y59H/Y61H/Y89S)
- MEASUREMENT PROTOCOL: biochemical
PROPERTY NAME: IC50 (µM)
Please reply with the bare figure in µM and do not write the unit itself.

# annotated cases, reported IC50 shown
INSERT INTO measurements (compound, property_name, measured) VALUES
  ('CC(C)C[C@H](NC(=O)[C@@H](NC(=O)[C@H](CCC(=O)O)NC(=O)[C@H](C)NC(=O)[C@H](C)NC(=O)[C@H](C)NC(=O)[C@H](CCC(N)=O)NC(=O)[C@@H](NC(=O)[C@@H](NC(=O)[C@H](Cc1ccccc1)NC(=O)[C@H](C)NC(=O)[C@H](C)NC(=O)[C@@H](N)C(C)C)[C@@H](C)O)C(C)C)[C@@H](C)O)C(=O)N[C@@H](CO)C(=O)N[C@@H](CCC(=O)O)C(=O)O [Peptide 68.0136]', 'IC50', 4.46),
  ('CSCC[C@H](NC(=O)[C@H](CC(=O)O)NC(=O)[C@H](Cc1ccc(O)cc1)NC(=O)[C@H](CC(C)C)NC(=O)[C@@H]1CCCN1C(=O)[C@H](Cc1c[nH]cn1)NC(=O)[C@@H]1CCCN1C(=O)[C@H](Cc1ccccc1)NC(=O)[C@H](CO)NC(=O)[C@H](Cc1c[nH]cn1)NC(=O)[C@H](CO)NC(=O)[C@@H](NC(=O)[C@H](CCC(N)=O)NC(=O)[C@H](Cc1ccccc1)NC(=O)[C@@H](N)C(C)C)C(C)C)C(=O)O [Peptide 68.0070]', 'IC50', 2.48);

Now for a further compound.
Report IC50 for CC(C)C[C@H](NC(=O)[C@@H](NC(=O)[C@H](Cc1c[nH]c2ccccc12)NC(=O)[C@H](CC(=O)O)NC(=O)[C@H](CCC(=O)O)NC(=O)[C@@H](NC(=O)[C@H](CCCCN)NC(=O)[C@H](Cc1ccc(O)cc1)NC(=O)[C@H](CCCNC(=N)N)NC(=O)[C@H](CO)NC(=O)[C@@H](N)CCC(N)=O)[C@@H](C)O)[C@@H](C)O)C(=O)N[C@@H](CCC(N)=O)C(=O)N[C@@H](CC(=O)O)C(=O)N[C@H](C(=O)N[C@@H](CS)C(=O)O)[C@@H](C)O [Peptide 90.0179] please. 0.193

* * *

- TARGET OR SYSTEM: A*0203 (Homo sapiens, UniProt P04439, A173T/D140Y/D185E/D98H/E277Q/G131W/G231S/I119V/I121R/I166T/I218V/L180W/L300P/L318F/N151K/N90K/P208A/P217A/Q86G/Q94H/R138H/R169H/T345S)
- MEASUREMENT PROTOCOL: biochemical
- Assay type: binding
No end group written: not given here.
PROPERTY NAME: log10(IC50) (log10 of the value in nM)
Recall that a logarithmic scale is used here: each number is log10 of IC50 in nM.

# annotated cases, reported log10(IC50) shown
INSERT INTO results (sequence_text, measured) VALUES
  ('TLESTPFNV [Peptide 9013.0012]', 2.34),
  ('IQNDTGFYV [Peptide 9013.0035]', 1.57),
  ('VAWDSVYYM [Peptide 1578.46]', 3.12),
  ('RILQRLLFV [Peptide 1525.27]', 1.04),
  ('WQRLLLTASLV [Peptide 9013.0253]', 1.28),
  ('YLWWVNNQSV [Peptide 9013.0197]', 0.62),
  ('YLYYRPGVNL [Peptide 9013.0209]', 0.45),
  ('KLTFLCVTL [Peptide 1516.14]', 1.61);

Report log10(IC50) for GMIDDVTAI [Peptide 1578.44] please. 0.86

Report log10(IC50) for PQYSWRINGV [Peptide 9013.0235] please. 1.40

Report log10(IC50) for TLYAHIQCL [Peptide 1578.26] please. 0.97

Report log10(IC50) for RMLQQLLFI [Peptide 1525.12] please. 1.08

Report log10(IC50) for AVAFTCEPEV [Peptide 9013.0155] please. 1.73

* * *

- TARGET OR SYSTEM: HLA-A11 (A*1101) (Homo sapiens, UniProt P04439, A114D/D185E/E176A/F33Y/L180Q/S129P/T187R)
- MEASUREMENT PROTOCOL: biochemical
- Format: binding
- Parameters: unit not given here
PROPERTY NAME: A11
Format: numeric value only, no unit, no commentary.

INSERT INTO measurements (sequence_text, property_name, measured) VALUES
  ('SLHCKPEEA', 'A11', 0),
  ('VFGIDVKEA', 'A11', 0),
  ('EVYDGREHSA', 'A11', 0),
  ('LVFGIDVKEA', 'A11', 0);

Now for a further sequence.
Report A11 for "FLIIVLVMIA" please. 0.0030

* * *

- TARGET OR SYSTEM: A*2902 (Homo sapiens, UniProt P04439, A270S/D101N/D185E/E176V/E277Q/E87Q/F33T/G231S/H175R/I121M/I218V/I322F/K168Q/L300P/L318F/M331R/P208A/P217A/Q86L/T323A/T345S/V100A/V358M)
- MEASUREMENT PROTOCOL: biochemical
- Format: binding
pIC50: −log10 of the molar value. No end group written: not given here.
Label scheme for pIC50: 1 (below 6), 2 (6 to below 7), 3 (7 or more)

Reference set, count: 3
INSERT INTO assay_data (sequence_text, classification) VALUES
  ('LTDKILDHY [Peptide 1593.16]', 1),
  ('ATLERTEVY [Peptide 78.0252]', 2),
  ('TIEKLTNTGLY [Peptide 1589.45]', 1);

Band for the recorded pIC50 of ISDSYTYY [Peptide 9012.0102] ? 1

Band for the recorded pIC50 of VTEFRWYRY [Peptide 1549.42] ? 2

Band for the recorded pIC50 of YSKVSEFRWY [Peptide 78.0009] ? 1

Band for the recorded pIC50 of VQDKILDIY [Peptide 1580.32] ? 1

Band for the recorded pIC50 of ESNSLKCLRY [Peptide 1580.26] ? 1

Band for the recorded pIC50 of LSDTRNDVGPY [Peptide 9012.0164] ? 1

* * *

- TARGET OR SYSTEM: DRB1*0405 (Homo sapiens, UniProt P01903+P01911, A100R/A169T/D86S/F76Y/I96L/K127E/L162R/M171V/N62H/P40V/Q125Y/R42H/S133A/S149N/S66Y/V115G/V209L/W38E)
- MEASUREMENT PROTOCOL: biochemical
- Format: binding
No end group written: not given here.
Label scheme for IC50: band A: < 0.8 µM; band B: ≥ 0.8 µM and < 5 µM; band C: ≥ 5 µM

Reference set, count: 10
INSERT INTO results (sequence_text, classification) VALUES
  ('TPEWIQRLTIIQHGI [Peptide 89.0030]', 'band A'),
  ('QMMLETLNNTEYKNE [Peptide 1601.22]', 'band A'),
  ('SRVIVCPTSIPSDQI [Peptide 90.0027]', 'band C'),
  ('LNTVKIPNTVSVSTG [Peptide 89.0178]', 'band B'),
  ('VTAIFGVNPTIAEGF [Peptide 89.0023]', 'band A'),
  ('DIAYKYAQLADVNSN [Peptide 89.0108]', 'band B'),
  ('LKGDANILKCLRYRL [Peptide 1601.26]', 'band B'),
  ('TYGVSFMELVRPFKS [Peptide 89.0095]', 'band C'),
  ('GVNHQHLPARRAEPQ [Peptide 1543.05]', 'band C'),
  ('WCIIGMGVTPSVAEG [Peptide 89.0097]', 'band C');

Band for the recorded IC50 of KNRLTVAKLMSNLLS [Peptide 89.0064] ? band A

Band for the recorded IC50 of SNLLSIPETCMVIEP [Peptide 89.0067] ? band A

Band for the recorded IC50 of YENDSTDLRDHIDYW [Peptide 1601.01] ? band C

Band for the recorded IC50 of LYGVSFMELIRPFQS [Peptide 89.0041] ? band B
